# test_target: human CYP2C9 (Homo sapiens)
# Sequence (P11712 whole entry): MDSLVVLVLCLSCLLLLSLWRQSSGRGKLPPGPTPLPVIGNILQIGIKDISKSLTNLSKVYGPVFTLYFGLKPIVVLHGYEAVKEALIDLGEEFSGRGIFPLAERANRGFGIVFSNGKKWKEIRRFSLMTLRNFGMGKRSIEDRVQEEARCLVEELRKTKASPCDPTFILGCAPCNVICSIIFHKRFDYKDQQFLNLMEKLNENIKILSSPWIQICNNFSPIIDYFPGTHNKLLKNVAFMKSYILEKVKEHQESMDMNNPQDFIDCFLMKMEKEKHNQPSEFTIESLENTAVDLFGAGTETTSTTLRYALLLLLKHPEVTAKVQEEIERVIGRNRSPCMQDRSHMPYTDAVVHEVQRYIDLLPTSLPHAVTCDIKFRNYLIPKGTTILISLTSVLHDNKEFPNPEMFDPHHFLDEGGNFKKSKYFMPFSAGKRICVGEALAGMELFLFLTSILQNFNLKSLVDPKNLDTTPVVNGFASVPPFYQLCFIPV
experimental_readout: CYP2C9 IC50

Use the examples below as a reference point.
Give the value of CYP2C9 IC50 reported for the following: Cc1ccc(N(CC2=NCCN2)c2cccc(O)c2)cc1 [Phentolamine mesilate] Inactive

Give the value of CYP2C9 IC50 reported for the following: O=C1NCN(c2ccccc2)C12CCN(CCCOc1ccc(F)cc1)CC2 [AMI-193] Inactive

Give the value of CYP2C9 IC50 reported for the following: CCCCCCCCCCCCCCCC[N+](C)(C)C.[Cl-] [Hexadecyl trimethyl ammonium chloride] Inactive

Give the value of CYP2C9 IC50 reported for the following: c1ccc2cc3c(cc2c1)-c1cccc2cccc-3c12 [Benzo(k)fluoranthene] Inactive

Give the value of CYP2C9 IC50 reported for the following: O=C(CCCN1CCC2(CC1)C(=O)NCN2c1ccccc1)c1ccc(F)cc1 [Spiperone] Inactive

Give the value of CYP2C9 IC50 reported for the following: CCN(CC)CCCC(C)Nc1c2ccc(Cl)cc2nc2ccc(OC)cc12 (centres unmarked) [Quinacrine] Inactive

Give the value of CYP2C9 IC50 reported for the following: CCCN(CCC)CCc1c[nH]c2ccccc12.Cl [N,N-Dipropyltryptamine hydrochloride] Inactive

---
Give the value of CYP2C9 IC50 reported for the following: CC(Cc1ccccc1)N(C)Cc1ccco1 (centres unmarked) [Furfenorex] Inactive

====

Please go through the items and note down their pIC50.
# test_target: human CYP2D6 (Homo sapiens)
# Sequence (P10635 whole entry): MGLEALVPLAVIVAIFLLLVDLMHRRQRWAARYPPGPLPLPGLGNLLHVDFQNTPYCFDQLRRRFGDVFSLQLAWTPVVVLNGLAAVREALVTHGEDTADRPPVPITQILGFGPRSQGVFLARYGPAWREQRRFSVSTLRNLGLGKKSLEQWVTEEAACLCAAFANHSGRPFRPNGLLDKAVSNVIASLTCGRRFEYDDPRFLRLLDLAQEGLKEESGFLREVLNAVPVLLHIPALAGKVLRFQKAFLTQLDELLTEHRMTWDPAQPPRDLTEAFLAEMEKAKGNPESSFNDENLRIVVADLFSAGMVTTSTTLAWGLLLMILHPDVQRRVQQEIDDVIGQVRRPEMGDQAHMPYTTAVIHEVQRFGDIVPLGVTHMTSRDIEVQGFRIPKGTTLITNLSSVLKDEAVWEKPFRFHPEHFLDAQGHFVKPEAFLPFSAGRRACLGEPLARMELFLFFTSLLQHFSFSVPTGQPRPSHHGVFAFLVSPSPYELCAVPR
# procedure_summary: biochemical
# measurement_parameters: CYP2D6 IC50 (half-maximal inhibitory concentration)
Where a name gives a salt, the structure may show the parent alone.
Conceptually, pIC50 converts a concentration in mol/L into minus its log10.

Give the value of pIC50 reported for the following: O=[N+]([O-])c1c2ccccc2cc2ccccc12 [9-Nitroanthracene] 4.47

Give the value of pIC50 reported for the following: O=S(=O)(Oc1ccc(Cl)cc1)c1ccc(Cl)cc1 [Chlorfenson] 4.67

Give the value of pIC50 reported for the following: Clc1ccc(CCC(Cn2ccnc2)Sc2c(Cl)cccc2Cl)cc1 (stereo not drawn) [Butoconazole nitrate] 5.63

Give the value of pIC50 reported for the following: CN(C)CCCN1c2ccccc2Sc2ccc(C(F)(F)F)cc21 [Triflupromazine hydrochloride] 6.26

Give the value of pIC50 reported for the following: C=CCOC(Cn1ccnc1)c1ccc(Cl)cc1Cl (stereo not drawn) [imazalil] 5.21

Give the value of pIC50 reported for the following: O=C(OCC1(COC(=O)c2cccnc2)CCCC(COC(=O)c2cccnc2)(COC(=O)c2cccnc2)C1O)c1cccnc1 [Nicomolol] 4.65

Give the value of pIC50 reported for the following: CN(C)C(=O)Nc1ccc(Cl)c(Cl)c1 [Diuron] 4.38

Give the value of pIC50 reported for the following: CCC(=O)O[C@]1(C(=O)SCF)[C@H](C)C[C@H]2[C@@H]3C[C@H](F)C4=CC(=O)C=C[C@]4(C)[C@@]3(F)[C@@H](O)C[C@@]21C [Fluticasone propionate] 4.88

Give the value of pIC50 reported for the following: COc1ccc2c(c1OC)C(=O)O[C@@H]2[C@H]1c2c(cc3c(c2OC)OCO3)CCN1C [Noscapine] 4.89

Give the value of pIC50 reported for the following: CC[N+](CC)(CC(=O)Nc1c(C)cccc1C)Cc1ccccc1 [Denatonium benzoate] 8.00

Give the value of pIC50 reported for the following: OC(Cc1ccccc1Cl)(Cn1nc[nH]c1=S)C1(Cl)CC1 (stereo not drawn) [Prothioconazole] 4.32

Give the value of pIC50 reported for the following: CC(C)(C)[C@@H](O)[C@@H](Cc1ccc(Cl)cc1)n1cncn1 (racemic) [Paclobutrazol] 4.43

Give the value of pIC50 reported for the following: Cl[C@H]1[C@H](Cl)[C@@H](Cl)[C@H](Cl)[C@@H](Cl)[C@H]1Cl [delta-Hexachlorocyclohexane] 4.31

Give the value of pIC50 reported for the following: CC(C)(C)C(O)(CCc1ccc(Cl)cc1)Cn1cncn1 (stereo not drawn) [Tebuconazole] 4.46

Give the value of pIC50 reported for the following: CN1[C@@H]2CC[C@H]1C[C@@H](OC(=O)c1cc(Cl)cc(Cl)c1)C2 [MDL 72222] 7.30

Give the value of pIC50 reported for the following: Nc1ccc(N)c2c1C(=O)c1ccccc1C2=O [1,4-Diaminoanthraquinone] 4.48

Give the value of pIC50 reported for the following: c1ccc2c(c1)Sc1ccccc1N2CC1CN2CCC1CC2 (stereo not drawn) [Mequitazine] 6.54

Give the value of pIC50 reported for the following: O=C1c2ccccc2C(=O)C1C(=O)C(c1ccccc1)c1ccc(Cl)cc1 (stereo not drawn) [Chlorophacinone] 4.35

====

# test_target: human CYP2C19 (Homo sapiens)
# measurement_parameters: human
experimental_readout: CYP2C19 Efficacy (in parenthesis)

Give the value of CYP2C19 Efficacy (in parenthesis) reported for the following: O=C1c2ccccc2Cc2ccccc21 [Anthrone] 15.72 ± 5.91 (-83 ± 4) %

Give the value of CYP2C19 Efficacy (in parenthesis) reported for the following: CC(C)C1CCC(Cc2ccc(Cl)cc2)C1(O)Cn1cncn1 (centres unmarked) [Ipconazole] 0.27 ± 0.07 (-168 ± 31) %

Give the value of CYP2C19 Efficacy (in parenthesis) reported for the following: CCCC(Cn1cncn1)c1ccc(Cl)cc1Cl (centres unmarked) [Penconazole] 0.14 ± 0.02 (-137 ± 5) %

Give the value of CYP2C19 Efficacy (in parenthesis) reported for the following: Clc1ccc(C(Cn2ccnc2)OCc2ccsc2Cl)c(Cl)c1 (centres unmarked) [Tioconazole] 0.25 ± 0.09 (-140 ± 3) %

Give the value of CYP2C19 Efficacy (in parenthesis) reported for the following: CCNP(=S)(OC)O/C(C)=C/C(=O)OC(C)C (centres unmarked) [Propetamphos] 0.08 ± 0.01 (-138 ± 6) %

====

# test_target: human CYP2C19 (Homo sapiens, UniProt P33261)
# Sequence (P33261 whole entry): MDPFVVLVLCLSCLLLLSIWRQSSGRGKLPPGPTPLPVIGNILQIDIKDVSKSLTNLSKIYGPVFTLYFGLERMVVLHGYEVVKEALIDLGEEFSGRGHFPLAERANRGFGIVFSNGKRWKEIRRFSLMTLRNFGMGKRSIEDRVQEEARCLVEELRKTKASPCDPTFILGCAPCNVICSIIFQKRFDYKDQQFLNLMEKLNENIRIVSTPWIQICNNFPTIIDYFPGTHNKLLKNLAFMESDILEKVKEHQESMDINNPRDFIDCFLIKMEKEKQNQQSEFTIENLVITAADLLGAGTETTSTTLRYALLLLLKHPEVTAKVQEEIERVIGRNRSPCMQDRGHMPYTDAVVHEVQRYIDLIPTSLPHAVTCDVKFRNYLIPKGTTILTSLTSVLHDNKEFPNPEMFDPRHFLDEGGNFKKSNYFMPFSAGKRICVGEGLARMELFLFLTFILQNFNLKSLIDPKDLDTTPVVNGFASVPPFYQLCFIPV
# procedure_summary: biochemical
Structures can show the parent of a compound that is named as a salt.
experimental_readout: pIC50
Conceptually, pIC50 converts a concentration in mol/L into minus its log10.

Give the value of pIC50 reported for the following: `O=C1c2ccccc2C(=O)c2c(Cl)cccc21` 4.86

Give the value of pIC50 reported for the following: `O=C1N(c2ccccc2)c2ccccc2C1(Cc1ccncc1)Cc1ccncc1` 5.77

Give the value of pIC50 reported for the following: `CC(C)OC(=O)c1cc(C(=O)OC(C)C)cc([N+](=O)[O-])c1` 6.28

Give the value of pIC50 reported for the following: `CCN(CC)CCOc1ccccc1C(=O)CCc1ccccc1` 4.45

Give the value of pIC50 reported for the following: O=C1CC2(CCCC2)CC(=O)N1CCNCC1COc2ccccc2O1 (stereo not drawn) [Binospirone mesylate] 5.06

Give the value of pIC50 reported for the following: CC1=C(C(=O)OC(C)C)C(c2cccc([N+](=O)[O-])c2)C(C(=O)OC2CN(C(c3ccccc3)c3ccccc3)C2)=C(N)N1 (stereo not drawn) 5.61

Give the value of pIC50 reported for the following: C=CCOc1cc(Cl)ccc1C(=O)NCCN(CC)CC [Alloclamide] 4.57

Give the value of pIC50 reported for the following: CC(C(O)c1ccccc1)N(C)C/C=C/c1ccccc1 (stereo not drawn) 5.84

Give the value of pIC50 reported for the following: CN(Cc1cc(Br)cc(Br)c1N)C1CCCCC1 [Bromhexine hydrochloride] 5.36

====

# test_target: human CYP1A2 (Homo sapiens, UniProt P05177)
# Sequence (P05177 whole entry): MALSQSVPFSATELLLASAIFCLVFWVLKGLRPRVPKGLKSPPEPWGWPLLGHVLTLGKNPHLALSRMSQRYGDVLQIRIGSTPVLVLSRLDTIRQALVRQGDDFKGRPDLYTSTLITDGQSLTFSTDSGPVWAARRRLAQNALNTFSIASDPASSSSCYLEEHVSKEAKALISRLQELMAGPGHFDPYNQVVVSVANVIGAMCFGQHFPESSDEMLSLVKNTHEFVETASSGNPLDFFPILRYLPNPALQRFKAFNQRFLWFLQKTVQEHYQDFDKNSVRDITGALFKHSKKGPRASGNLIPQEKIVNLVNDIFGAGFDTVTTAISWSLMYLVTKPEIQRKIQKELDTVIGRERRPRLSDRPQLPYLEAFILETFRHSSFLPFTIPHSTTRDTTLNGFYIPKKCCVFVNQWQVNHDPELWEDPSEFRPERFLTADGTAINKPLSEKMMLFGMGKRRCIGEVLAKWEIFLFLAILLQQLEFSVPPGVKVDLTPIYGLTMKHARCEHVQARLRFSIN
# procedure_summary: biochemical
# measurement_parameters: CYP1A2 IC50 (half-maximal inhibitory concentration)
experimental_readout: IC50 (µM)
All answers are understood in µM, so give the number only.

Give the value of IC50 reported for the following: Cc1ccc(Cl)c(OCC(O)CNC(C)(C)C)c1 (stereo not shown) 15.5

Give the value of IC50 reported for the following: `Nc1c(Br)cc(Br)c2c1C(=O)c1ccccc1C2=O` 0.14

Give the value of IC50 reported for the following: `CCCCOCN(C(=O)CCl)c1c(CC)cccc1CC` 51.6

Give the value of IC50 reported for the following: `CCOP(=S)(OCC)Oc1ccc(Cl)cc1Cl` 3.07

Give the value of IC50 reported for the following: `CO/N=C(/C(=O)OC)c1ccccc1COc1ccccc1C` 22

Give the value of IC50 reported for the following: CCN(CC)C(=O)C(C)Oc1cccc2ccccc12 (stereo not shown) [Napropamide] 25

Give the value of IC50 reported for the following: CC1COC(Cn2cncn2)(c2ccc(Oc3ccc(Cl)cc3)cc2Cl)O1 (stereo not shown) 27.4

Give the value of IC50 reported for the following: `Brc1c2ccccc2c(Br)c2ccccc12` 0.41

Give the value of IC50 reported for the following: `Fc1ccc(Oc2ccnc3cc(Cl)cc(Cl)c23)cc1` 0.53

Give the value of IC50 reported for the following: `O=C1c2ccccc2C(=O)C1C(=O)C(c1ccccc1)c1ccccc1` 28.3

====

Please go through the items and note down their IC50.
# test_target: CYP3A4 (Homo sapiens)
# Sequence (P08684 whole entry): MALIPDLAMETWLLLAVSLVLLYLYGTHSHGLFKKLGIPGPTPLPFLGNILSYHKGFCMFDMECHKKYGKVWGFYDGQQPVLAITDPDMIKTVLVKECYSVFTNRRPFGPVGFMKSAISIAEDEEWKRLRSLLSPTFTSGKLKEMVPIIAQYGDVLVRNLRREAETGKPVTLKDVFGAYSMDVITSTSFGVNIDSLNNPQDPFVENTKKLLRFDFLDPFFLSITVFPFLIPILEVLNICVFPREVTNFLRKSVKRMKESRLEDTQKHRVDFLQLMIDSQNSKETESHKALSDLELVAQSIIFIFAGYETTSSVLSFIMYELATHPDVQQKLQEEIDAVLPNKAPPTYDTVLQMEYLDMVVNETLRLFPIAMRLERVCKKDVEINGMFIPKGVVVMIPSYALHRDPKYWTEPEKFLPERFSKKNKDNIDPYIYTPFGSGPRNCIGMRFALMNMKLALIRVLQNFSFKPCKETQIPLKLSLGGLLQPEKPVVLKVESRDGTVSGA
Remember to quote the unit after the number.

Give the value of IC50 reported for the following: COc1cc2c(cc1N)oc1ccccc12 [2-Methoxy-3-aminodibenzofuran] 8.5 µM

Give the value of IC50 reported for the following: C=CC(=O)OCC(CO)(COCC(COC(=O)C=C)(COC(=O)C=C)COC(=O)C=C)COC(=O)C=C [Dipentaerythritol pentaacrylate] 0.43 µM

Give the value of IC50 reported for the following: `C=CCc1cc(S(=O)(=O)c2ccc(O)c(CC=C)c2)ccc1O` 20 µM

Give the value of IC50 reported for the following: COC(=O)C1=C(C)NC(C)=C(C(=O)O[C@@H]2CCCN(Cc3ccccc3)C2)[C@@H]1c1cccc([N+](=O)[O-])c1.Cl (racemic) [rac Benidipine hydrochloride] 0.84 µM

Give the value of IC50 reported for the following: Cn1ccc2cc3c(cc21)CCN3C(=O)Nc1cccnc1 [SB-206553] 3.55 µM

Give the value of IC50 reported for the following: C[C@@H]1C[C@H]2[C@@H]3CCC4=CC(=O)C=C[C@]4(C)[C@@]3(F)[C@@H](O)C[C@]2(C)[C@@]1(O)C(=O)COC(=O)c1ccncc1 [Dexamethasone isonicotinate] 0.81 µM

Give the value of IC50 reported for the following: Cc1oc(=O)oc1COC(=O)[C@@H]1N2C(=O)[C@@H](NC(=O)[C@H](N)c3ccccc3)[C@H]2SC1(C)C.Cl [Lenampicillin hydrochloride] 0.62 µM

Give the value of IC50 reported for the following: CCC(COC(=O)c1cc(OC)c(OC)c(OC)c1)(c1ccccc1)N(C)C.O=C(O)/C=C\C(=O)O (centres unmarked) [Trimebutine maleate] 4.07 µM

Give the value of IC50 reported for the following: CCCCCCCC[N+](CCCCCCCC)(CCCCCCCC)CCCCCCCC.[Br-] [Tetra-N-octylammonium bromide] 1.87 µM

Give the value of IC50 reported for the following: `CCCCCCCCCCCCCC[P+](CCCCCC)(CCCCCC)CCCCCC.O=S(=O)([N-]S(=O)(=O)C(F)(F)F)C(F)(F)F` 3.13 µM

Give the value of IC50 reported for the following: Cc1cc(N=Nc2ccccc2C)ccc1N [2-Amino-5-azotoluene] 2.53 µM

Give the value of IC50 reported for the following: COC(=O)c1cncn1C(C)c1ccccc1.Cl (centres unmarked) [Metomidate hydrochloride] 0.25 µM

Give the value of IC50 reported for the following: `Cl.Cl.NCCNc1cccc2ccccc12` 31.8 µM

Give the value of IC50 reported for the following: `CCOP(=O)([O-])OCC.CCn1cc[n+](C)c1` 45 µM

Give the value of IC50 reported for the following: `CCCCCCCC[N+](C)(CCCCCCCC)CCCCCCCC.O=S(=O)([O-])C(F)(F)F` 3.7 µM

Give the value of IC50 reported for the following: `FC(F)(F)c1ccccc1-n1ccnc1` 0.44 µM

Give the value of IC50 reported for the following: OC(c1ccc(Cl)cc1)(c1ccc(Cl)cc1)c1cccnc1 [Parinol] 2.75 µM

Give the value of IC50 reported for the following: CC(=O)CCc1ccc2c(c1)OCO2 [Piperonyl acetone] 18.5 µM

Give the value of IC50 reported for the following: Cc1[nH]cnc1C[C@H]1CCc2c(C)c3ccccc3n2C1=O.Cl [Fabesetron hydrochloride] 1.89 µM

Give the value of IC50 reported for the following: C[C@H]1CCC[C@H](O)CCCCCc2cc(O)cc(O)c2C(=O)O1 [Zearalanol] 1 µM

Give the value of IC50 reported for the following: `COC(=O)c1c(C)cc(O)c(C)c1O` 53.2 µM

Give the value of IC50 reported for the following: COc1cc(-c2ccc(N)c(OC)c2)ccc1N.Cl.Cl [3,3'-Dimethoxybenzidine dihydrochloride] 1.71 µM

Give the value of IC50 reported for the following: [Cl][Hg][Cl] [Mercuric chloride] 2.25 µM

Give the value of IC50 reported for the following: `CCCC[N+](C)(CCCC)CCCC.O=S(=O)([N-]S(=O)(=O)C(F)(F)F)C(F)(F)F` 67.4 µM

Give the value of IC50 reported for the following: O=C(NCc1cccnc1)Nc1ccc([N+](=O)[O-])cc1 [Pyrinuron] 0.93 µM

Give the value of IC50 reported for the following: CC(=O)c1ccc2ccc3ccccc3c2c1 [3-Acetylphenanthrene] 48.5 µM

Give the value of IC50 reported for the following: COc1cccc(CCc2ccccc2OCC(CN(C)C)OC(=O)CCC(=O)O)c1.Cl (centres unmarked) [Sarpogrelate hydrochloride] 6.72 µM

Give the value of IC50 reported for the following: O=C(Nc1ccccc1SSc1ccccc1NC(=O)c1ccccc1)c1ccccc1 [2,2'-Dibenzoylaminodiphenyl disulfide] 3.23 µM

Give the value of IC50 reported for the following: `CC(C)(C)c1cc(CCC(=O)NN)cc(C(C)(C)C)c1O` 0.14 µM

Give the value of IC50 reported for the following: CCOC(=O)c1c(C)n(C)c2ccc(O)cc12 [Mecarbinate] 5.97 µM

Give the value of IC50 reported for the following: `Cc1cc(CCC(=O)OCCOCCOCCOC(=O)CCc2cc(C)c(O)c(C(C)(C)C)c2)cc(C(C)(C)C)c1O` 2.56 µM

Give the value of IC50 reported for the following: CCOc1cc(OCC)c(C(C)=O)cc1OCC [2,4,5-Triethoxyacetophenone] 58.5 µM

Give the value of IC50 reported for the following: CC[C@H]1C[C@@H]2C[C@H]3c4[nH]c5ccc(OC)cc5c4CCN(C2)[C@@H]13.Cl [Ibogaine hydrochloride] 32.5 µM

Give the value of IC50 reported for the following: COP(=S)(NC(C)C)Oc1ccc(C)cc1[N+](=O)[O-] (centres unmarked) [Amiprofos-methyl] 0.55 µM

Give the value of IC50 reported for the following: CC[C@]12CCCN3CCc4c(n(c5ccccc45)C(=O)C1)[C@@H]32 [(-)-Eburnamonine] 4.38 µM
